Source listed as PubChem BioAssay (NCI).

Assay: NCI Yeast Anticancer Drug Screen. Data for the rad50 strain (AID 155);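 further: 0% = growth of vehicle-only cultures of the same strain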
Settings: S. cerevisiae rad50 strain growth inhibition; at 50.0 µM; active compounds read high
About 79,000 compounds went through this panel and 15% of them were active in at least one assay; those are over-represented in the sample as a whole.

{"columns": ["COMPOUND", "UNIT_TAG", "growth inhibition"],
 "data": [
  ["O=NNc1ccc2ccccc2n1", "%", -17.1],
  ["CN(C)P1P(N(C)C)P(N(C)C)P1N(C)C (stereo unspecified)", "%", -25.4],
  ["Cc1cccc(-n2c(C)nc3ccccc3c2=O)c1C", "%", -15.2],
  ["CC1(CO)C(O)CCC2(C)C1CCC1CC3CC12CCC3(O)CO (stereo unspecified)", "%", -3.35],
  ["O=C(O)c1cc(Cc2ccc(O)c(C(=O)O)c2)ccc1O (tested in a mixture with another compound)", "%", 42.6],
  ["CC(C)(O)C1=CC23CC(C)(C(=O)O)C4CCCCC4(C)C2CC1OO3 (stereo unspecified)", "%", 21.4],
  ["CN(C)c1ccccc1CN1CCCN(Cc2ccccc2N(C)C)C1c1ccc(N(CCCl)CCCl)cc1", "%", 92.4],
  ["CN(C)CC1(N)C(=O)NC(=O)NC1=O", "%", 75.7],
  ["Cn1cnc([N+](=O)[O-])c1C(=O)O", "%", 7.9],
  ["Cc1ccc(N2CC=C(c3ccccc3)OP2(=O)N(CCCl)CCCl)cc1 (stereo unspecified)", "%", 76.8],
  ["[CH3][Sn]([c]1ccccc1)[c]1ccccc1", "%", -4.15]
]}

====

Assay: NCI Yeast Anticancer Drug Screen. Data for the mec2-1 strain (AID 157)
Conditions: S. cerevisiae mec2-1 strain, at 50.0 µM, active compounds read high
About 79,000 compounds went through this panel and 15% of them were active in at least one assay; those are over-represented in the sample as a whole.
Below, each entry is listed alongside its reported growth inhibition.

{"columns": ["COMPOUND", "growth inhibition / %"],
 "data": [
  ["C[N+](C)(C)CC1CCCCCCCCCCC1=O (stereo not drawn)", -10.4],
  ["NS(=O)(=O)c1ccc([As](=O)(O)O)cc1", -3.85],
  ["O=C(CBr)Nc1ccccc1", 98.9],
  ["O=c1c2cc(Br)ccc2[nH]c(=S)n1-c1ccc(Br)cc1", -7.2],
  ["Cc1cccc(N=Nc2ccc(N(C)C)cc2)c1", -36.6],
  ["O=[N+]([O-])/C=C/c1ccc(Cl)cc1", 99.8],
  ["CC(=O)Nc1ccc(C(=O)O)cc1", -1],
  ["Cc1ccc(N2CC=C(c3ccccc3)OP2(=O)N(CCCl)CCCl)cc1 (stereo not drawn)", 84.8],
  ["[C-]#[O+].[C-]#[O+].[C-]#[O+].[C-]#[O+].[C-]#[O+].[C-]#[O+].[C-]#[O+].[C-]#[O+].[C-]#[O+].[C-]#[O+].[Mn].[Mn]", -12.6],
  ["O=C([CH-]C(=O)c1ccccc1)c1ccccc1.O=C([CH-]C(=O)c1ccccc1)c1ccccc1.O=C([CH-]C(=O)c1ccccc1)c1ccccc1.[Cl-].[Zr+4]", 67.3],
  ["[N-]=[N+]=Nc1c([N+](=O)[O-])c(=O)n2c3c(cccc13)CCC2", 88.8],
  ["C=C1CC/C=C(/C)C(=O)C(OC(C)=O)C2C1CC2(C)C (stereo not drawn)", 83.6],
  ["C1=C/CCC2NC2C/C=C/CCC/1 (stereo not drawn)", -20.4],
  ["CCC[CH2][Sn]1([CH2]CCC)[O]C2C(O)OC(CO)C(O)C2[O]1 (stereo not drawn)", 99.3],
  ["CCC(C)C(CC)C(=O)NC(N)=O (stereo not drawn)", 4.55],
  ["NC(=O)CCCc1ccc([As]=O)cc1 (stereo not drawn)", -11.9],
  ["Oc1c(Cl)c(Cl)c(O)c(Cl)c1Cl", 99.3],
  ["C(=P(c1ccccc1)(c1ccccc1)c1ccccc1)[P+](c1ccccc1)(c1ccccc1)c1ccccc1.[Cl][Fe]([Cl])([Cl])[Br]", 99.5],
  ["CCCNP(=S)(NCCC)NCCC", -10.4],
  ["Oc1ccc(C=NCC2CCCC[N-]2)c(O)c1.Oc1ccc(C=NCC2CCCC[N-]2)c(O)c1.[Ni+2] (stereo not drawn)", 8],
  ["CC(=O)OC1CC2(C)C3(CO3)C1OC1C=C(C)C(=O)C(O)C12CO (stereo not drawn)", -3.95],
  ["O=C(Nc1cccc(Cl)c1)OCC(Cl)(Cl)Cl", 99.8],
  ["COc1cc(/C=C(/C)[N+](=O)[O-])ccc1O", 99.6],
  ["[Se]c1nc(N2CCOCC2)ncc1-c1ccccc1", 0.5],
  ["COC(=O)[C@]1(C)CCC[C@]2(C)[C@H]3CC4OO[C@@]3(CC[C@H]21)[C@H]1O[C@@]41C(C)C", 93.4],
  ["O=C(O)C(F)(F)F.O=C(O)C(F)(F)F.O=C(O)C(F)(F)F.O=C(O)C(F)(F)F.[Rh].[Rh]", 17.1],
  ["CC1CCC2(OC1)OC1C(O)C3C4CCC5CC(OC6OC(CO)C(OC7OC(CO)C(O)C(OC8OCC(O)C(O)C8O)C7OC7OC(CO)C(O)C(OC8OC(CO)C(O)C(O)C8O)C7O)C(O)C6O)C(O)CC5(C)C4CCC3(C)C1C2C (stereo not drawn)", 94],
  ["CC(C)CC1N=C(N(C)N=O)OP1(=O)NNc1ncccn1 (stereo not drawn)", -14.9]
]}
